The measurements presented in this section are drawn from PubChem BioAssay.

Assay name: growth suppression of yeast trafficking mutant, preliminary HTS, modulators of trafficking downstream of Golgi apparatus project, 1536-format plate, OD 615 nm (AID 637); further: test concentration not given here
Applied conditions: yeast transport mutant growth, absorbance 615 nm, 18 h; hits give high values
Assay endpoint: inhibition (%)
One number for each entry, in %.

Compound | Assay endpoint | Unit annotation | Endpoint result
Cc1ccc(NC(=O)c2oc3ccc(S(=O)(=O)N4CCOCC4)cc3c2C)cc1C | inhibition | % | 2.54
CCCC1CCC(C(=O)Nn2cnc3ccccc3c2=O)CC1 (stereo unspecified) | inhibition | % | 7.05
COCCn1nnnc1CN1CCC(Cc2ccccc2)CC1 | inhibition | % | 4.68
N=c1c(C(=O)NCc2ccccc2)cc2c(=O)n3ccccc3nc2n1Cc1ccco1 | inhibition | % | 0.32
COc1ccccc1C(=O)N1CCCC(c2nc(-c3cc(OC)c(OC)c(OC)c3)no2)C1 (stereo unspecified) | inhibition | % | 7.3

Parameter requested: inhibition. Apply to each item below.
1. COc1ccc(CN(C(=O)CN2C(=O)COc3ccccc32)C2CCCC2)c(OC)c1
2. COC(=O)C1=C(C)N(c2ccc(C(=O)OC)cc2)C(=O)C1
3. CCOc1ccc(NC(=O)CN2CCN(CC(=O)c3ccc(OCC)cc3)CC2)cc1

[-0.18, 1.43, -2.83]

Quick request: inhibition for each listed item, please.
1. Cc1c(NC(=O)C2CCCNC2=O)c(=O)n(-c2ccccc2)n1C (stereo unspecified)
2. c1ccc(CN2CCN(c3ncnc4c3[nH]c3ccccc34)CC2)cc1
3. CCN1CCN(C(=O)c2cn(CCOC)c(=O)c3c2c2ccccc2n3C)CC1
4. O=C(C1CCN(S(=O)(=O)c2cnc[nH]2)CC1)N1CCN(c2ncccn2)CC1
5. COC(=O)c1[nH]c2ccc(C)cc2c1NC(=O)CN1CCCC(C)(C)C1
6. COc1cccc2c(=O)cc(C)n(CC(=O)Nc3ccc(C)c(C)c3)c12
7. Cc1ccc(-c2cc(C(F)F)nc(NCC3CCCO3)n2)cc1 (stereo unspecified)

[3.33, 2.1, -5.4, 0, 4.91, -2.91, -5.25]

// each compound listed below needs its inhibition
1. CCn1c(=O)c2cc(S(=O)(=O)NCc3ccccc3)ccc2n(CC)c1=O
2. Nc1nc2n(n1)C(c1cccc(Cl)c1)CC(c1ccc(F)cc1)N2 (stereo unspecified)

[18.7, -0.83]

Go through the list and state inhibition for each entry.
1. COc1ccc(Cl)c(NC(=O)NCCN2CCN(c3ccccc3)CC2)c1
2. COc1ccccc1C(=O)NC(C)C(c1cccs1)N1CCN(C)CC1 (stereo unspecified)
3. O=C(CSc1nc2cc(Cl)ccc2s1)N1CCN(C(=O)c2ccco2)CC1
4. CCCCCCn1c(CN2CCN(Cc3ccccc3)CC2)nc2c1c(=O)n(C)c(=O)n2C
5. O=C(CSc1nc2ccccc2o1)NC(=O)NCc1ccco1
6. CC(=O)Nc1ccc(NC(=O)c2cc(C)nn2-c2ccccc2)cc1
7. NC(=O)C1CCN(c2nc(-c3ccccc3)nc3ccccc23)CC1

1. 1.27
2. -6.67
3. 0.97
4. 4.55
5. -1.27
6. -7.9
7. -4.03

// batch mode: one inhibition value per listed entry
1. C=CCOc1ccc(CN(C)CC(=O)N(CC(C)C)c2c(N)n(CC(C)C)c(=O)[nH]c2=O)cc1
2. COc1cc(CN2CCC(C(=O)NC3CCCC3)CC2)ccc1O
3. c1ccc2c(NC3CCCC3)nnc(NC3CCCC3)c2c1
4. O=C(Nc1ccc2c(c1)OCO2)OCc1ccccc1
5. Cc1cccc(CC2CC(=O)N(c3ccccc3)C2=O)c1 (stereo unspecified)
6. CCCOc1ccc(N2C(=O)CC(SCCN)C2=O)cc1 (stereo unspecified)
7. NNC(=O)c1ccncc1
8. CC(=O)c1c(O)cc(C)n(Nc2nc(C)cc(C)n2)c1=O

2
0.79
-7.46
2.22
-5.9
-3.02
17.5
-0.73

I would be grateful if you could provide inhibition for each of the following entries.
1. CCn1ncc(C2=NOC(C(=O)N3CCC(C(N)=O)CC3)C2)c1C (stereo unspecified)
2. Nc1cc(N)nc(SCc2ccccc2)n1
3. Cn1cccc1Cc1nnc(SCC(=O)Nc2ccccc2F)n1CCc1ccccc1
4. N#CC(C(=O)CCN1C(=O)C2CC=CCC2C1=O)c1nc2ccccc2[nH]1 (stereo unspecified)
5. CN(C)c1ccc(C2C3=C(CCCC3=O)OC3=C2C(=O)CCC3)cc1
6. CC1CN(C2CCCCC2)c2nc3c(c(=O)[nH]c(=O)n3C)n2C1 (stereo unspecified)
7. COc1ccccc1N(CN1CCCC1=O)C(=O)c1c(F)cccc1Cl
8. CCN1CCCC1CNCc1ccc(Cl)cc1Cl (stereo unspecified)

1: 15.2; 2: 9.27; 3: 2.67; 4: 6.23; 5: -2.18; 6: 7.3; 7: -0.32; 8: 6.83

Batch request: inhibition for each of the following compounds.
1. Cc1nc2sccn2c(=O)c1CCN1CCC(=C(c2ccc(F)cc2)c2ccc(F)cc2)CC1
2. O=C(OCc1cccs1)c1ccccc1NS(=O)(=O)c1ccc2c(c1)OCCO2
3. COc1ccc(C)cc1NC(=O)CN1CCN(S(=O)(=O)c2ccc(Cl)cc2)CC1

1. 6.17
2. 5.74
3. -2.17

Hi, could you look up inhibition for each item in my list?
1. CCN(CC)C(=O)c1ccc(O)c(OC)c1
2. O=C(CCCCn1c(=O)[nH]c2ccsc2c1=O)NCc1cccnc1
3. O=C(NCc1cccs1)C1CC(c2ccccc2O)=NO1 (stereo unspecified)

1. -5
2. -0.63
3. -0.33
